procedure.summary: Clearance in BALB/c mouse at 50 mg/kg,iv measured upto 24 hrs by HPLC-MS/MS analysis
Assay type: ADME, organism-based
experimental.setup: in vivo
measured.quantity: clearance
Answer format reminder: number followed by unit.

Query (compound): CCN(c1cc(-c2ccc([C@@H]3C[C@H]3N(CC3CCOCC3)C(=O)OC(C)(C)C)cc2)cc(C(=O)NCc2c(C)cc(C)[nH]c2=O)c1C)C1CCOCC1 (racemic) ; field requested: clearance 6.67 mL/min/kg

----------
procedure.summary: Metabolic stability in Sprague-Dawley rat hepatocyte assessed as half life at 20 uM incubated for 60 mins by HPLC-MS/MS analysis
Type: ADME, cell-based
experimental.setup: hepatocytes
measured.quantity: half-life at 20 µM (h)
A number alone suffices; assume h.

Please report the recorded half-life at 20 µM for CCN(c1cc(-c2ccc([C@@H]3C[C@H]3N(CC3CCOCC3)C(=O)OC(C)(C)C)cc2)cc(C(=O)NCc2c(C)cc(C)[nH]c2=O)c1C)C1CCOCC1 (racemic) . 5.5

Data origin, for the record: ChEMBL document CHEMBL5584353
